# System: BaF3
# Format: functional
# Condition Info: Mus musculus, time 72 hrs
Quick rule for you: GI50 under 50 nM gets class 1, anything else gets class 0.

| Molecule | Label Value |
| --- | --- |
| COc1cc(C2CCN(CC3CN(c4ccc5c(c4)C(=O)N(C4CCC(=O)NC4=O)C5=O)C3)CC2)c(C)cc1Nc1ncc(Cl)c(Nc2ccccc2S(=O)(=O)C(C)C)n1 (configuration not stated) | class 1 |
| COc1cc(C2CCN(CC3CN(c4ccc5c(c4)C(=O)N(C4CCC(=O)N(C)C4=O)C5=O)C3)CC2)c(C)cc1Nc1ncc(Cl)c(Nc2ccccc2S(=O)(=O)C(C)C)n1 (configuration not stated) | class 1 |
| C[C@@H](Oc1cc(-c2cnn(C3CCNCC3)c2)cnc1N)c1c(Cl)ccc(F)c1Cl | class 0 |
| Cc1cc(Nc2ncc(Cl)c(Nc3ccccc3S(=O)(=O)C(C)C)n2)c(OC(C)C)cc1C1CCNCC1 | class 0 |
| COc1cc(N2CCC(N3CCN(C)CC3)CC2)ccc1Nc1ncc(Cl)c(Nc2ccccc2P(C)(C)=O)n1 | class 1 |
| CCc1cc2c(cc1N1CCC(N3CCOCC3)CC1)C(C)(C)c1[nH]c3cc(C#N)ccc3c1C2=O | class 0 |

###

# Tested on: Erythrocyte
# Experiment Summary: Hemolytic activity in mouse RBC assessed as hemolysis incubated for 45 mins by absorbance based microplate reader analysis
# Format: toxicity, cell-based
# Condition Info: 0.75 h

| Compound | Activity |
| --- | --- |
| COc1cc(C2CCN(CC3CN(c4ccc5c(c4)C(=O)N(C4CCC(=O)NC4=O)C5=O)C3)CC2)c(C)cc1Nc1ncc(Cl)c(Nc2ccccc2S(=O)(=O)C(C)C)n1 (stereo not given) | Non-Toxic |
| COc1cc(C2CCN(CCCC#Cc3cccc4c3CN(C3CCC(=O)NC3=O)C4=O)CC2)c(C)cc1Nc1ncc(Cl)c(Nc2ccccc2S(=O)(=O)C(C)C)n1 (stereo not given) | Non-Toxic |
| COc1cc(CCNCCCCCC#Cc2cccc3c2CN(C2CCC(=O)NC2=O)C3=O)c(C)cc1Nc1ncc(Cl)c(Nc2ccccc2S(=O)(=O)C(C)C)n1 (stereo not given) | Toxic |
| COc1cc(CCNCCCCCC#Cc2cccc3c2C(=O)N(C2CCC(=O)NC2=O)C3=O)c(C)cc1Nc1ncc(Cl)c(Nc2ccccc2S(=O)(=O)C(C)C)n1 (stereo not given) | Toxic |
| COc1cc(C2CCN(CCCCCC#Cc3cccc4c3CN(C3CCC(=O)NC3=O)C4=O)CC2)c(C)cc1Nc1ncc(Cl)c(Nc2ccccc2S(=O)(=O)C(C)C)n1 (stereo not given) | Toxic |

###

Reported solubility thermodynamic at 24 h values are given for each entry in this list.
# Experiment Summary: Solubility of the compound in FeSSIF at pH 5.0 incubated for 24 hrs under shaking condition by UPLC-UV/HPLC-UV analysis
# Format: physicochemical

| Compound | Unit Spec | solubility thermodynamic at 24 h |
| --- | --- | --- |
| COc1cc(CCNCCCCCC#Cc2cccc3c2CN(C2CCC(=O)NC2=O)C3=O)c(C)cc1Nc1ncc(Cl)c(Nc2ccccc2S(=O)(=O)C(C)C)n1 (configuration not stated) | µM | 686 |
| COc1cc(C2CCN(CC3CN(c4ccc5c(c4)C(=O)N(C4CCC(=O)NC4=O)C5=O)C3)CC2)c(C)cc1Nc1ncc(Cl)c(Nc2ccccc2S(=O)(=O)C(C)C)n1 (configuration not stated) | µM | 122 |

###

Reported IC50 values are given for each entry in this list.
# Assayed System: ALK tyrosine kinase receptor (Homo sapiens, UniProt Q9UM73)
# Sequence (Q9UM73 whole entry, the tested form may be a part): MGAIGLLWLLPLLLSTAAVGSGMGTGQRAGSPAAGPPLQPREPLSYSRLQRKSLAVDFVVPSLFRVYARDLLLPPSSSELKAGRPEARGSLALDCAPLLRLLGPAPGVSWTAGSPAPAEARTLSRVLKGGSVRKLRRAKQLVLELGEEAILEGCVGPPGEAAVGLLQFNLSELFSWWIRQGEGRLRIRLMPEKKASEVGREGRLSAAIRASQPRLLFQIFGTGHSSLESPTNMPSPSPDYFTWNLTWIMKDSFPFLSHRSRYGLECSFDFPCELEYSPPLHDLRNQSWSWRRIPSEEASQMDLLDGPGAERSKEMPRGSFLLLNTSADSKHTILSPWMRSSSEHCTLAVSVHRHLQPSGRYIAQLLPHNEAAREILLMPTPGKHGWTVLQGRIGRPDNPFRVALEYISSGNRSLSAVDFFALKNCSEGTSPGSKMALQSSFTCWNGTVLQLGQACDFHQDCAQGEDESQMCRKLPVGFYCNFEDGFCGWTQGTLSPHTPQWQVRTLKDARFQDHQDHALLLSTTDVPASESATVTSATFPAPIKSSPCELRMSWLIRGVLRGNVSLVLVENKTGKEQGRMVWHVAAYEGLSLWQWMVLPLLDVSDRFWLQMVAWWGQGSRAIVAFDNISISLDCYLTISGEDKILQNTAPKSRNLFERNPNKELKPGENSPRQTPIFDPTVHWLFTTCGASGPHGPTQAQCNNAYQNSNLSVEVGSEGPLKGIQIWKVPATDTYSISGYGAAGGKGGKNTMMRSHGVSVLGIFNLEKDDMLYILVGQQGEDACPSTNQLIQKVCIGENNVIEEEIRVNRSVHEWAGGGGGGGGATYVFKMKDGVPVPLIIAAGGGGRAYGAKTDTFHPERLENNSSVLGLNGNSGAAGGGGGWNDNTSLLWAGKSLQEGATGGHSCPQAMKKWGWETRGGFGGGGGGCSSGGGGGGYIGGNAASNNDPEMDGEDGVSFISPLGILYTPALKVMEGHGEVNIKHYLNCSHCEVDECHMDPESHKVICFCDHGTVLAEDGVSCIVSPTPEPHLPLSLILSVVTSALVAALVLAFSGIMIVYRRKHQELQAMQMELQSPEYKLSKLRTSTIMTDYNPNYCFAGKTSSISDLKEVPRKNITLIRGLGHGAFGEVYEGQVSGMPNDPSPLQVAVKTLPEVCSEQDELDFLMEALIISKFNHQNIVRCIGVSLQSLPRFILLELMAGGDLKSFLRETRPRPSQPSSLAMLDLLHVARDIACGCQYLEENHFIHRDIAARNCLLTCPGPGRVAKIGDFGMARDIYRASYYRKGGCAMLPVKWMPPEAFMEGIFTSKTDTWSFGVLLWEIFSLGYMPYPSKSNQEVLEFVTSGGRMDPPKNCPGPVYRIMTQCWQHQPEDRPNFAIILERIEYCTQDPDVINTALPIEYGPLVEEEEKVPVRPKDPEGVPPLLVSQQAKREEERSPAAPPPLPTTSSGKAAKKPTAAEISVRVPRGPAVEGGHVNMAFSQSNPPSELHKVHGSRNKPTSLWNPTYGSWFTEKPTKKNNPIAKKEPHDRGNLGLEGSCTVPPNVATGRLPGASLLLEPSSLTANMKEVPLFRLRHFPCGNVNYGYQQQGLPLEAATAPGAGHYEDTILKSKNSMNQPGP
# Experiment Summary: Inhibition of N-terminal flag-tagged NanoLuc fused ALK kinase domain (1072 to 1410 residues) (unknown origin) expressed in mouse BaF3 cells assessed as reduction in BRET signal incubated for 2 hrs in presence of CPD-1571 tracer by NanoBRET assay

| Compound | IC50 |
| --- | --- |
| Cc1cc(Nc2ncc(Cl)c(Nc3ccccc3S(=O)(=O)C(C)C)n2)c(OC(C)C)cc1C1CCN(CCOCCOCCNC(=O)CNc2cccc3c2C(=O)N(C2CCC(=O)NC2=O)C3=O)CC1 (configuration not stated) | 971 nM |
| COc1cc(C2CCN(CCCC#Cc3cccc4c3CN(C3CCC(=O)NC3=O)C4=O)CC2)c(C)cc1Nc1ncc(Cl)c(Nc2ccccc2S(=O)(=O)C(C)C)n1 (configuration not stated) | 542 nM |

###

# Experiment Summary: Microsomal stability in human liver microsomes assessed as intrinsic clearance at 1 uM and measured upto 60 mins in presence of NADPH by LC-MS/MSC analysis
# Assay type: ADME, Microsome
# Condition Info: read-out: CLH
Reported microsomal CLint at 1 µM values are given for each entry in this list.

| Molecule | microsomal CLint at 1 µM / µL/min/mg |
| --- | --- |
| COc1cc(C2CCN(CCCCCC#Cc3cccc4c3CN(C3CCC(=O)NC3=O)C4=O)CC2)c(C)cc1Nc1ncc(Cl)c(Nc2ccccc2S(=O)(=O)C(C)C)n1 (configuration not stated) | 5.4 |
| COc1cc(C2CCN(CCCC#Cc3cccc4c3CN(C3CCC(=O)NC3=O)C4=O)CC2)c(C)cc1Nc1ncc(Cl)c(Nc2ccccc2S(=O)(=O)C(C)C)n1 (configuration not stated) | 10.5 |
| COc1cc(C2CCN(CC3CN(c4ccc5c(c4)C(=O)N(C4CCC(=O)NC4=O)C5=O)C3)CC2)c(C)cc1Nc1ncc(Cl)c(Nc2ccccc2S(=O)(=O)C(C)C)n1 (configuration not stated) | 8 |
| COc1cc(CCNCCCCCC#Cc2cccc3c2C(=O)N(C2CCC(=O)NC2=O)C3=O)c(C)cc1Nc1ncc(Cl)c(Nc2ccccc2S(=O)(=O)C(C)C)n1 (configuration not stated) | 59 |
| COc1cc(CCNCCCCCC#Cc2cccc3c2CN(C2CCC(=O)NC2=O)C3=O)c(C)cc1Nc1ncc(Cl)c(Nc2ccccc2S(=O)(=O)C(C)C)n1 (configuration not stated) | 39 |
| COc1cc(C2CCN(CC3CN(c4ccc5c(c4)CN(C4CCC(=O)NC4=O)C5=O)C3)CC2)c(C)cc1Nc1ncc(Cl)c(Nc2ccccc2S(=O)(=O)C(C)C)n1 (configuration not stated) | 25.2 |
| COc1cc(C2CCN(CC#Cc3ccc4c(c3)CN(C3CCC(=O)NC3=O)C4=O)CC2)c(C)cc1Nc1ncc(Cl)c(Nc2ccccc2S(=O)(=O)C(C)C)n1 (configuration not stated) | 14.8 |

###

# Tested on: Erythrocyte
# Experiment Summary: Hemolytic activity in human RBC assessed as hemolysis incubated for 45 mins by absorbance based microplate reader analysis
# Assay type: toxicity, cell-based
# Condition Info: 0.75 h

| Compound | Activity |
| --- | --- |
| COc1cc(CCNCCCCCC#Cc2cccc3c2CN(C2CCC(=O)NC2=O)C3=O)c(C)cc1Nc1ncc(Cl)c(Nc2ccccc2S(=O)(=O)C(C)C)n1 (stereo not given) | Toxic |
| COc1cc(CCNCCCCCC#Cc2cccc3c2C(=O)N(C2CCC(=O)NC2=O)C3=O)c(C)cc1Nc1ncc(Cl)c(Nc2ccccc2S(=O)(=O)C(C)C)n1 (stereo not given) | Toxic |
| COc1cc(C2CCN(CCCCCC#Cc3cccc4c3CN(C3CCC(=O)NC3=O)C4=O)CC2)c(C)cc1Nc1ncc(Cl)c(Nc2ccccc2S(=O)(=O)C(C)C)n1 (stereo not given) | Toxic |
| COc1cc(C2CCN(CC3CN(c4ccc5c(c4)C(=O)N(C4CCC(=O)NC4=O)C5=O)C3)CC2)c(C)cc1Nc1ncc(Cl)c(Nc2ccccc2S(=O)(=O)C(C)C)n1 (stereo not given) | Non-Toxic |
| COc1cc(C2CCN(CCCC#Cc3cccc4c3CN(C3CCC(=O)NC3=O)C4=O)CC2)c(C)cc1Nc1ncc(Cl)c(Nc2ccccc2S(=O)(=O)C(C)C)n1 (stereo not given) | Non-Toxic |
